Values from ChEMBL document CHEMBL1255176

System: Mycobacterium tuberculosis
Assay: Antitubercular activity against Mycobacterium tuberculosis H37Rv by twofold dilution method
Type: functional
value.kind: MIC (µg/mL)

> print(dat)
                                    molecule  numeric.result
 1  CCOC(=O)C1=C(C)NC(=S)NC1c1cn(-c2ccccc2)nc1-c1ccc([N+](=O)[O-])cc1 (stereo not given)            3.13
 2  CCOC(=O)C1=C(C)NC(=S)NC1c1cn(-c2ccccc2)nc1-c1ccc(C)cc1 (stereo not given)            1.56
 3  CCOC(=O)C1=C(C)NC(SC)NC1c1cn(-c2ccccc2)nc1-c1ccc(C)cc1 (stereo not given)            1.56
 4  CCOC(=O)C1=C(C)NC(=O)NC1c1cn(-c2ccccc2)nc1-c1ccc([N+](=O)[O-])cc1 (stereo not given)            0.02
 5  CCOC(=O)C1=C(C)NC(=O)NC1c1cn(-c2ccccc2)nc1-c1ccc(F)cc1 (stereo not given)            0.02
 6  COC(=O)C1=C(C)NC(=S)NC1c1cn(-c2ccccc2)nc1-c1ccc([N+](=O)[O-])cc1 (stereo not given)            3.13
 7                           NNC(=O)c1ccncc1            0.03
 8  COC(=O)C1=C(C)NC(=O)NC1c1cn(-c2ccccc2)nc1-c1ccc(C)cc1 (stereo not given)            1.56
 9  COC(=O)C1=C(C)NC(=O)NC1c1cn(-c2ccccc2)nc1-c1ccc(Br)cc1 (stereo not given)            6.25
10  CCOC(=O)C1=C(C)NC(=N)NC1c1cn(-c2ccccc2)nc1-c1ccc(Cl)cc1 (stereo not given)            3.13
